From: paper PMC2659690

Item-by-item account of t1/2 human plasma
Test: Stability in human plasma
Assay type: in vitro ADME
Conditions: undiluted human plasma, 37 °C; mean ± SD, n = 3
Give the number; h is assumed, so skip it.

Use these answered entries as a reference point.
[[record]]
smiles_str = "CC(C)[C@H](N)C(=O)OC[C@H]1O[C@@H](n2cc(F)c(=O)[nH]c2=O)C[C@@H]1O"
readout = "t1/2 human plasma"
unit_abbreviation = "h"
reported = 2.192

[[record]]
smiles_str = "N[C@@H](Cc1ccccc1)C(=O)N[C@@H](Cc1ccc(O)cc1)C(=O)OC[C@H]1O[C@@H](n2cc(F)c(=O)[nH]c2=O)C[C@@H]1O"
readout = "t1/2 human plasma"
unit_abbreviation = "h"
reported = 1.34

[[record]]
smiles_str = "CC[C@H](C)[C@H](N)C(=O)OC[C@H]1O[C@@H](n2cc(F)c(=O)[nH]c2=O)C[C@@H]1O"
readout = "t1/2 human plasma"
unit_abbreviation = "h"
reported = 4.523

[[record]]
smiles_str = "NCC(=O)OC[C@H]1O[C@@H](n2cc(F)c(=O)[nH]c2=O)C[C@@H]1O"
readout = "t1/2 human plasma"
unit_abbreviation = "h"
reported = 1.2


Here is the next item to consider.
INPUT: Requested field: t1/2 human plasma. Item: CC(C)C[C@H](N)C(=O)NCC(=O)OC[C@H]1O[C@@H](n2cc(F)c(=O)[nH]c2=O)C[C@@H]1O
OUTPUT: 0.112

###

Item-by-item account of pIC50
Biological target: PEPT1 (Homo sapiens)
Test: [3H]Gly-Sar uptake inhibition in AsPC-1 cells
Format: cell-based
Conditions: read-out: IC50 [3H]Gly-Sar uptake inhibition AsPC-1; AsPC-1 cells, 10 μmol/L Gly-Sar, 30 min; mean ± SD, n = 3
Hey, just a heads up that pIC50 is the negative log base 10 of the concentration in molar.

Use these answered entries as a reference point.
[[record]]
smiles_str = "N[C@@H](Cc1ccccc1)C(=O)NCC(=O)OC[C@H]1O[C@@H](n2cc(F)c(=O)[nH]c2=O)C[C@@H]1O"
assayed_target = "PEPT1 (Homo sapiens)"
reported = 3.06

[[record]]
smiles_str = "N[C@@H](Cc1ccccc1)C(=O)OC[C@H]1O[C@@H](n2cc(F)c(=O)[nH]c2=O)C[C@@H]1O"
assayed_target = "PEPT1 (Homo sapiens)"
reported = 2.71

[[record]]
smiles_str = "CC(C)[C@H](N)C(=O)OC[C@H]1O[C@@H](n2cc(F)c(=O)[nH]c2=O)C[C@@H]1O"
assayed_target = "PEPT1 (Homo sapiens)"
reported = 2.54

[[record]]
smiles_str = "CC(C)C[C@H](N)C(=O)OC[C@H]1O[C@@H](n2cc(F)c(=O)[nH]c2=O)C[C@@H]1O"
assayed_target = "PEPT1 (Homo sapiens)"
reported = 2.59

[[record]]
smiles_str = "CC[C@H](C)[C@H](N)C(=O)OC[C@H]1O[C@@H](n2cc(F)c(=O)[nH]c2=O)C[C@@H]1O"
assayed_target = "PEPT1 (Homo sapiens)"
reported = 2.39

[[record]]
smiles_str = "N[C@@H](Cc1ccccc1)C(=O)N[C@@H](Cc1ccc(O)cc1)C(=O)OC[C@H]1O[C@@H](n2cc(F)c(=O)[nH]c2=O)C[C@@H]1O"
assayed_target = "PEPT1 (Homo sapiens)"
reported = 3.21

[[record]]
smiles_str = "NCC(=O)OC[C@H]1O[C@@H](n2cc(F)c(=O)[nH]c2=O)C[C@@H]1O"
assayed_target = "PEPT1 (Homo sapiens)"
reported = 2.57

[[record]]
smiles_str = "CC[C@H](C)[C@H](N)C(=O)NCC(=O)OC[C@H]1O[C@@H](n2cc(F)c(=O)[nH]c2=O)C[C@@H]1O"
assayed_target = "PEPT1 (Homo sapiens)"
reported = 3.54


INPUT: For the record CC(C)C[C@H](N)C(=O)NCC(=O)OC[C@H]1O[C@@H](n2cc(F)c(=O)[nH]c2=O)C[C@@H]1O , what value of pIC50 is listed for PEPT1 (Homo sapiens)?
OUTPUT: 3.29

###

Target: UniProt:P46059
Assay: [3H]Gly-Sar uptake inhibition in Caco-2 cells
Type: cell-based
Readout: IC50 (mM)
Give the number; mM is assumed, so skip it.

INPUT: Requested field: IC50. Item: O=c1[nH]c(=O)n([C@H]2C[C@H](O)[C@@H](CO)O2)cc1F [floxuridine, 5-fluoro-2′-deoxyuridine, reference compound]
OUTPUT: 8.43

###

Test system: Capan-2 cell homogenates
Assay: Enzymatic stability in Capan-2 cell homogenate
Type: in vitro ADME, human
Conditions: 500 μg/mL protein, 37 °C, mean ± SD, n = 3
Item-by-item account of t1/2 cell homogenates Capan-2
Give the number; min is assumed, so skip it.

Use these answered entries as a reference point.
[[record]]
smiles_str = "CC(C)[C@H](N)C(=O)OC[C@H]1O[C@@H](n2cc(F)c(=O)[nH]c2=O)C[C@@H]1O"
unit_abbreviation = "min"
reported = 5.2

[[record]]
smiles_str = "CC[C@H](C)[C@H](N)C(=O)NCC(=O)OC[C@H]1O[C@@H](n2cc(F)c(=O)[nH]c2=O)C[C@@H]1O"
unit_abbreviation = "min"
reported = 18.7

[[record]]
smiles_str = "N[C@@H](Cc1ccccc1)C(=O)NCC(=O)OC[C@H]1O[C@@H](n2cc(F)c(=O)[nH]c2=O)C[C@@H]1O"
unit_abbreviation = "min"
reported = 4.3


Here is the next item to consider.
INPUT: Requested field: t1/2 cell homogenates Capan-2. Item: CC[C@H](C)[C@H](N)C(=O)OC[C@H]1O[C@@H](n2cc(F)c(=O)[nH]c2=O)C[C@@H]1O
OUTPUT: 139.9

###

Target: PEPT1 (Homo sapiens, UniProt P46059)
Sequence (P46059 whole entry): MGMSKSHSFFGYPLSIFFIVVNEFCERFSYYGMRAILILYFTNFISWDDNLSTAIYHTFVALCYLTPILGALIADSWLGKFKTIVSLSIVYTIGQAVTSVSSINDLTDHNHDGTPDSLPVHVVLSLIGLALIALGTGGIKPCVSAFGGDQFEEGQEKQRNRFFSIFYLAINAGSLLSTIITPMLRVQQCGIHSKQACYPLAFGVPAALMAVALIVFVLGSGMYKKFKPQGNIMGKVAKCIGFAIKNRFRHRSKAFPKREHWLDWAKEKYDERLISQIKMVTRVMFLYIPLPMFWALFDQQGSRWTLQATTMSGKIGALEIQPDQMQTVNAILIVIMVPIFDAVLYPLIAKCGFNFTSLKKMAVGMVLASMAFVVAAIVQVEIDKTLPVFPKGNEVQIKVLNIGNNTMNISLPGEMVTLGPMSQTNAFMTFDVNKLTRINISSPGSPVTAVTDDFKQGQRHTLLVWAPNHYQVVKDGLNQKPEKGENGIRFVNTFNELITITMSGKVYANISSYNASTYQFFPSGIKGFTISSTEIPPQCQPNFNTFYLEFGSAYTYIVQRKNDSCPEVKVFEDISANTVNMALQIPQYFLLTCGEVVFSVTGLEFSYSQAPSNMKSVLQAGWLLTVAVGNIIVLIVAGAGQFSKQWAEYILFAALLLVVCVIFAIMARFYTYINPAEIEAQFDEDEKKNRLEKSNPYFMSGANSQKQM
Assay: [3H]Gly-Sar uptake inhibition in Caco-2 cells
Type: cell-based
Conditions: read-out: IC50 [3H]Gly-Sar uptake inhibition Caco-2; Caco-2 cells, 10 μmol/L Gly-Sar, 30 min; mean ± SD, n = 3
Readout: IC50 (µM)
Give the number; µM is assumed, so skip it.

[[record]]
compound = "N[C@@H](Cc1ccccc1)C(=O)N[C@@H](Cc1ccc(O)cc1)C(=O)OC[C@H]1O[C@@H](n2cc(F)c(=O)[nH]c2=O)C[C@@H]1O [5′-L-phenylalanyl-L-tyrosyl-floxuridine, 5′-L-Phenylalanyl-L-tyrosyl-floxuridine]"
assayed_target = "PEPT1 (Homo sapiens, UniProt P46059)"
reported = 660

[[record]]
compound = "NCC(=O)OC[C@H]1O[C@@H](n2cc(F)c(=O)[nH]c2=O)C[C@@H]1O [5′-L-glycyl-floxuridine]"
assayed_target = "PEPT1 (Homo sapiens, UniProt P46059)"
reported = 2280

[[record]]
compound = "N[C@@H](Cc1ccccc1)C(=O)NCC(=O)OC[C@H]1O[C@@H](n2cc(F)c(=O)[nH]c2=O)C[C@@H]1O [5′-L-phenylalanyl-L-glycyl-floxuridine, 5′-L-Phenylalanyl-L-glycyl-floxuridine]"
assayed_target = "PEPT1 (Homo sapiens, UniProt P46059)"
reported = 780


Here is the next item to consider.
INPUT: Requested field: IC50. Item: CC(C)C[C@H](N)C(=O)OC[C@H]1O[C@@H](n2cc(F)c(=O)[nH]c2=O)C[C@@H]1O [5′-L-leucyl-floxuridine]
OUTPUT: 3510

###

Target: UniProtKB P46059
Experiment: [3H]Gly-Sar uptake inhibition in AsPC-1 cells
Type: cell-based
Readout: pIC50
Hey, just a heads up that pIC50 is the negative log base 10 of the concentration in molar.

INPUT: Requested field: pIC50. Item: O=c1[nH]c(=O)n([C@H]2C[C@H](O)[C@@H](CO)O2)cc1F [floxuridine, 5-fluoro-2′-deoxyuridine, reference compound]
OUTPUT: 2.18

###

Experiment: Stability in human plasma
Format: in vitro ADME
Conditions: undiluted human plasma, 37 °C; mean ± SD, n = 3
Item-by-item account of t1/2 human plasma
Give the number; min is assumed, so skip it.

Use these answered entries as a reference point.
[[record]]
molecule = "N[C@@H](Cc1ccccc1)C(=O)OC[C@H]1O[C@@H](n2cc(F)c(=O)[nH]c2=O)C[C@@H]1O [5′-L-phenylalanyl-floxuridine]"
readout = "t1/2 human plasma"
reported = 62.8

[[record]]
molecule = "N[C@@H](Cc1ccccc1)C(=O)NCC(=O)OC[C@H]1O[C@@H](n2cc(F)c(=O)[nH]c2=O)C[C@@H]1O [5′-L-phenylalanyl-L-glycyl-floxuridine, 5′-L-Phenylalanyl-L-glycyl-floxuridine]"
readout = "t1/2 human plasma"
reported = 9.7

[[record]]
molecule = "CC(C)C[C@H](N)C(=O)OC[C@H]1O[C@@H](n2cc(F)c(=O)[nH]c2=O)C[C@@H]1O [5′-L-leucyl-floxuridine]"
readout = "t1/2 human plasma"
reported = 82.4


Here is the next item to consider.
INPUT: Requested field: t1/2 human plasma. Item: CC[C@H](C)[C@H](N)C(=O)NCC(=O)OC[C@H]1O[C@@H](n2cc(F)c(=O)[nH]c2=O)C[C@@H]1O [5′-L-isoleucyl-L-glycyl-floxuridine, 5′-L-Isoleucyl-L-glycyl-floxuridine]
OUTPUT: 9.5
